target: Lactoylglutathione lyase (Homo sapiens); assay: Inhibition of human recombinant GLO1 expressed in Escherichia coli BL21 assessed as decrease in reduced glutathione level after 1 hr by Ellman's method
Sequence (Q04760 whole entry): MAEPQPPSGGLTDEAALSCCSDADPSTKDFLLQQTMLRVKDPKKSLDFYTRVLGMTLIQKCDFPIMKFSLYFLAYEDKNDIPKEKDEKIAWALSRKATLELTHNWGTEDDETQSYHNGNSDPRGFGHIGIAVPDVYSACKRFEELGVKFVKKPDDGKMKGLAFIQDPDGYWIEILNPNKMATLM
Assign IC50 to each entry below.
Answers are plain numbers, in µM.

NC(=O)c1cccc(Cn2ccc3cc(-c4cc(-c5ccccc5)cc(=O)n4O)cnc32)c1	0.04
O=c1cc(-c2cccnc2)cc(-c2ccccc2)n1O	8.28
COCCn1ccc2cc(-c3cc(-c4ccccc4)cc(=O)n3O)cnc21	0.014
O=c1cc(-c2ccsc2)cc(-c2ccccc2)n1O	1.52

For every listed record, write down its IC50.
1. O=c1cc(-c2ccccc2)cc(-c2ccccc2)n1O
2. O=c1cc(-c2ccccc2)cc(-c2cnc3[nH]ccc3c2)n1O
3. COCCn1ccc2cc(-c3cc(-c4ccccc4)cc(=O)n3O)ccc21
4. COCCCn1ccc2cc(-c3cc(-c4ccccc4)cc(=O)n3O)ccc21
5. NC(=O)c1cccc(Cn2ccc3cc(-c4cc(-c5ccccc5)cc(=O)n4O)ccc32)c1

1.19
0.28
0.26
0.3
0.48

Please give IC50 for each item listed below.
1. CCCCn1ccc2cc(-c3cc(-c4ccccc4)cc(=O)n3O)cnc21
2. O=c1cc(-c2ccc(C(F)(F)F)cc2)cc(-c2ccccc2)n1O
3. CCCCCn1ccc2cc(-c3cc(-c4ccccc4)cc(=O)n3O)cnc21
4. O=c1cc(-c2ccccc2)cc(-c2ccc3[nH]ccc3c2)n1O
5. O=c1cc(-c2ccc(-c3ccccc3)cc2)cc(-c2ccccc2)n1O

[0.3, 8.13, 0.51, 0.25, 8.4]

###

system: Liver microsomes; assay: Clearance in human liver microsomes assessed per mg of protein at 1 uM after 30 mins in presence of NADPH; assay type: ADME, Microsome; conditions: 0.5 h
PARAMETER_MEASURED: CLint (µL/min/mg)
Answers are plain numbers, in µL/min/mg.

For this compound ( `O=c1cc(-c2ccccc2)cc(-c2ccccc2)n1O` ), measured CLint is 16

###

tested on: Liver; assay: Clearance in mouse liver microsomes assessed per mg of protein at 1 uM after 30 mins in absence of NADPH; assay type: ADME, Microsome; conditions: 0.5 h
PARAMETER_MEASURED: CLint (µL/min/mg)
Numbers only, in µL/min/mg.

CLint for Liver with input `O=c1cc(-c2ccccc2)cc(-c2ccccc2)n1O` equals 6.8

###

assay: Half life in mouse serum at […]; type: ADME, cell-free
PARAMETER_MEASURED: half-life (h)
Answers are plain numbers, in h.

The reported half-life of the compound `O=c1cc(-c2ccccc2)cc(-c2ccccc2)n1O` was 7.33
